Organism: Homo sapiens
Assay: Binding affinity to Fc-tagged FGFR1alpha (unknown origin) at 100 uM after 1 hr by Texas-red labeled anti-Fc detection based microarray assay
Activity calls are given as the source filed them. No cut-off for these calls is given here. *1 amine or outer side, *2 acyl side, *3 side chain or, on linkers, in order; H or OH if unused. Where a SMILES comes first, the peptide text is derived from it. [ ]: non-standard residue; d: D form. ξ: configuration not given here. Gly(N-(CH2)3N-pyrrolidone) = O=C(O)CNCCCN1CCCC1=O; Gly(N-CH2CH2C6H4-4Cl) = O=C(O)CNCCc1ccc(Cl)cc1; X1 = O=C(CN(Cc1cccc(C(F)(F)F)c1)[*:1])[*:2]; X3 = CC(c1ccccc1)N(CC(=O)[*:2])[*:1]; Nrpe = C[C@@H](NCC(=O)O)c1ccccc1; X2 = O=C(CN(CC1CCCO1)[*:1])[*:2]; NFurfurylGly = O=C(O)CNCc1ccco1; Gly(N-cPent) = O=C(O)CNC1CCCC1; NAllylGly = C=CCNCC(=O)O; Nphe = O=C(O)CNCc1ccccc1; Nlys = NCCCCNCC(=O)O; ξC = NC(CS)C(=O)O
Outcome field: choose from active, inactive

Use the examples below as a reference point.
[[record]]
compound = "C=CCN(CC(=O)N(CC(=O)N(CCCCN)CC(=O)N(CCCCN)CC(=O)N[C@@H](CS)C(N)=O)Cc1ccco1)C(=O)CN(Cc1ccco1)C(=O)CN(CC1CCCO1)C(=O)CN(C(=O)CNCCc1ccc(Cl)cc1)C1CCCC1 (stereo partly specified) (H-[Gly(N-CH2CH2C6H4-4Cl)][Gly(N-cPent)][X2][NFurfurylGly][NAllylGly][NFurfurylGly][Nlys][Nlys]C-NH2)"
category = "active"

[[record]]
compound = "C=CCN(CC(=O)N(CCCCN)CC(=O)N(CCCCN)CC(=O)N[C@@H](CS)C(N)=O)C(=O)CN(C(=O)CN(Cc1ccccc1)C(=O)CN(C(=O)CN(Cc1ccccc1)C(=O)CNC1CCCC1)C1CCCC1)[C@H](C)c1ccccc1 (H-[Gly(N-cPent)][Nphe][Gly(N-cPent)][Nphe][Nrpe][NAllylGly][Nlys][Nlys]C-NH2)"
category = "active"

[[record]]
compound = "C=CCN(CC(=O)N(CC(=O)N(CC(=O)N(CC(=O)N(CCCCN)CC(=O)N(CCCCN)CC(=O)NC(CS)C(N)=O)C1CCCC1)Cc1ccco1)Cc1cccc(C(F)(F)F)c1)C(=O)CN(C(=O)CNCCc1ccc(Cl)cc1)C(C)c1ccccc1 (stereo unspecified) (H-[Gly(N-CH2CH2C6H4-4Cl)][X3][NAllylGly][X1][NFurfurylGly][Gly(N-cPent)][Nlys][Nlys][ξC]-NH2)"
category = "inactive"

[[record]]
compound = "CC(NCC(=O)N(CC(=O)N(CC(=O)N(CC(=O)N(CC(=O)N(CC(=O)N(CCCCN)CC(=O)N(CCCCN)CC(=O)NC(CS)C(N)=O)Cc1cccc(C(F)(F)F)c1)Cc1cccc(C(F)(F)F)c1)CC1CCCO1)Cc1ccccc1)C1CCCC1)c1ccccc1 (stereo unspecified)"
category = "inactive"


Ask: Per the assay record, what outcome was assigned to C=CCN(CC(=O)N(CC(=O)N(CCCN1CCCC1=O)CC(=O)N(CCCCN)CC(=O)N(CCCCN)CC(=O)N[C@@H](CS)C(N)=O)CC1CCCO1)C(=O)CN(C(=O)CN(Cc1cccc(C(F)(F)F)c1)C(=O)CNCCCN1CCCC1=O)[C@H](C)c1ccccc1 (stereo partly specified) (H-[Gly(N-(CH2)3N-pyrrolidone)][X1][Nrpe][NAllylGly][X2][Gly(N-(CH2)3N-pyrrolidone)][Nlys][Nlys]C-NH2) ?
Result: active

Ask: Entry C=CCN(CC(=O)N(CC(=O)N(CCCCN)CC(=O)N(CCCCN)CC(=O)N[C@@H](CS)C(N)=O)[C@H](C)c1ccccc1)C(=O)CN(Cc1ccco1)C(=O)CN(C(=O)CN(Cc1cccc(C(F)(F)F)c1)C(=O)CNCc1ccccc1)C1CCCC1 (H-[Nphe][X1][Gly(N-cPent)][NFurfurylGly][NAllylGly][Nrpe][Nlys][Nlys]C-NH2) please
Result: active

* * *

Organism: Homo sapiens
Assay: Binding affinity to Fc-tagged FGFR1alpha (unknown origin) at 50 uM after 1 hr by Texas-red labeled anti-Fc detection based microarray assay
Calls of active or inactive are those of the source. No cut-off for these calls is given here. *1 amine or outer side, *2 acyl side, *3 side chain or, on linkers, in order; H or OH if unused. Where a SMILES comes first, the peptide text is derived from it. [ ]: non-standard residue; d: D form. ξ: configuration not given here. Gly(N-CH2CH2C6H4-4Cl) = O=C(O)CNCCc1ccc(Cl)cc1; X1 = O=C(CN(Cc1cccc(C(F)(F)F)c1)[*:1])[*:2]; X3 = CC(c1ccccc1)N(CC(=O)[*:2])[*:1]; Nrpe = C[C@@H](NCC(=O)O)c1ccccc1; NFurfurylGly = O=C(O)CNCc1ccco1; Gly(N-cPent) = O=C(O)CNC1CCCC1; NAllylGly = C=CCNCC(=O)O; Nphe = O=C(O)CNCc1ccccc1; Nlys = NCCCCNCC(=O)O; ξC = NC(CS)C(=O)O
Write down one outcome, taken from active, inactive

For orientation, consider the following solved cases.
[[record]]
molecule = "CC(NCC(=O)N(CC(=O)N(CC(=O)N(CC(=O)N(CC(=O)N(CC(=O)N(CCCCN)CC(=O)N(CCCCN)CC(=O)NC(CS)C(N)=O)Cc1cccc(C(F)(F)F)c1)Cc1cccc(C(F)(F)F)c1)CC1CCCO1)Cc1ccccc1)C1CCCC1)c1ccccc1 (centres undefined)"
category = "inactive"

[[record]]
molecule = "C=CCN(CC(=O)N(CCCCN)CC(=O)N(CCCCN)CC(=O)N[C@@H](CS)C(N)=O)C(=O)CN(C(=O)CN(Cc1ccccc1)C(=O)CN(C(=O)CN(Cc1ccccc1)C(=O)CNC1CCCC1)C1CCCC1)[C@H](C)c1ccccc1 (H-[Gly(N-cPent)][Nphe][Gly(N-cPent)][Nphe][Nrpe][NAllylGly][Nlys][Nlys]C-NH2)"
category = "active"

[[record]]
molecule = "C=CCN(CC(=O)N(CC(=O)N(CCCCN)CC(=O)N(CCCCN)CC(=O)N[C@@H](CS)C(N)=O)[C@H](C)c1ccccc1)C(=O)CN(Cc1ccco1)C(=O)CN(C(=O)CN(Cc1cccc(C(F)(F)F)c1)C(=O)CNCc1ccccc1)C1CCCC1 (H-[Nphe][X1][Gly(N-cPent)][NFurfurylGly][NAllylGly][Nrpe][Nlys][Nlys]C-NH2)"
category = "active"


Ask: Kindly provide the recorded test outcome for the following molecule: C=CCN(CC(=O)N(CC(=O)N(CC(=O)N(CC(=O)N(CCCCN)CC(=O)N(CCCCN)CC(=O)NC(CS)C(N)=O)C1CCCC1)Cc1ccco1)Cc1cccc(C(F)(F)F)c1)C(=O)CN(C(=O)CNCCc1ccc(Cl)cc1)C(C)c1ccccc1 (centres undefined) (H-[Gly(N-CH2CH2C6H4-4Cl)][X3][NAllylGly][X1][NFurfurylGly][Gly(N-cPent)][Nlys][Nlys][ξC]-NH2)
Result: inactive

* * *

Target: Fibroblast growth factor receptor 2 (Homo sapiens)
Experiment: Agonist activity at FGFR2 in human MDA231 cells assessed as increase in ERK phosphorylation at 15 uM after 10 mins by Western blot analysis
Assay type: cell-based
Active and inactive are the calls of the source. The calls are words filed in the database; no cut-off is given here. *1 amine or outer side, *2 acyl side, *3 side chain or, on linkers, in order; H or OH if unused. Where a SMILES comes first, the peptide text is derived from it. [ ]: non-standard residue; d: D form. Gly(N-(CH2)3N-pyrrolidone) = O=C(O)CNCCCN1CCCC1=O; Gly(N-CH2CH2C6H4-4Cl) = O=C(O)CNCCc1ccc(Cl)cc1; X1 = O=C(CN(Cc1cccc(C(F)(F)F)c1)[*:1])[*:2]; Nrpe = C[C@@H](NCC(=O)O)c1ccccc1; X2 = O=C(CN(CC1CCCO1)[*:1])[*:2]; NFurfurylGly = O=C(O)CNCc1ccco1; Gly(N-cPent) = O=C(O)CNC1CCCC1; NAllylGly = C=CCNCC(=O)O; Nphe = O=C(O)CNCc1ccccc1; Nlys = NCCCCNCC(=O)O
Hi there, use one of these labels in your reply, thanks! 1 (yes) for active, 0 (no) for inactive

// known answers, use as guide
[[record]]
compound = "C=CCN(CC(=O)N(CCCCN)CC(=O)N(CCCCN)CC(=O)N[C@@H](CS)C(N)=O)C(=O)CN(C(=O)CN(Cc1ccccc1)C(=O)CN(C(=O)CN(Cc1ccccc1)C(=O)CNC1CCCC1)C1CCCC1)[C@H](C)c1ccccc1 (H-[Gly(N-cPent)][Nphe][Gly(N-cPent)][Nphe][Nrpe][NAllylGly][Nlys][Nlys]C-NH2)"
category = "1 (yes)"

[[record]]
compound = "C=CCN(CC(=O)N(CC(=O)N(CCCCN)CC(=O)N(CCCCN)CC(=O)N[C@@H](CS)C(N)=O)[C@H](C)c1ccccc1)C(=O)CN(Cc1ccco1)C(=O)CN(C(=O)CN(Cc1cccc(C(F)(F)F)c1)C(=O)CNCc1ccccc1)C1CCCC1 (H-[Nphe][X1][Gly(N-cPent)][NFurfurylGly][NAllylGly][Nrpe][Nlys][Nlys]C-NH2)"
category = "1 (yes)"

[[record]]
compound = "C=CCN(CC(=O)N(CC(=O)N(CCCN1CCCC1=O)CC(=O)N(CCCCN)CC(=O)N(CCCCN)CC(=O)N[C@@H](CS)C(N)=O)CC1CCCO1)C(=O)CN(C(=O)CN(Cc1cccc(C(F)(F)F)c1)C(=O)CNCCCN1CCCC1=O)[C@H](C)c1ccccc1 (some centres undefined) (H-[Gly(N-(CH2)3N-pyrrolidone)][X1][Nrpe][NAllylGly][X2][Gly(N-(CH2)3N-pyrrolidone)][Nlys][Nlys]C-NH2)"
category = "1 (yes)"


Kindly consider the entry below.
Ask: Hi, sorry to bother you, what did the test record for C=CCN(CC(=O)N(CC(=O)N(CCCCN)CC(=O)N(CCCCN)CC(=O)N[C@@H](CS)C(N)=O)Cc1ccco1)C(=O)CN(Cc1ccco1)C(=O)CN(CC1CCCO1)C(=O)CN(C(=O)CNCCc1ccc(Cl)cc1)C1CCCC1 (some centres undefined) (H-[Gly(N-CH2CH2C6H4-4Cl)][Gly(N-cPent)][X2][NFurfurylGly][NAllylGly][NFurfurylGly][Nlys][Nlys]C-NH2) ?
Result: 0 (no)
